Origin of measurements: PubChem BioAssay (NCATS)

# Measurement description: qHTS to identify inhibitors of the type 1 interferon - major histocompatibility complex class I in skeletal muscle: primary screen against the NCATS Mechanism Interrogation Plate v5.0 (MIPE) Libary (AID 1347411); note: nearly all actives have a fitted effect of over 65% in size
# Conditions: iHSKM cells + IFN-b, HiBiT-tagged MHC-I luminescence, 24 h; series mostly up to 45.8 µM
Records with an inconclusive call do not appear. Active and inactive are the calls of the source. Calls come from the whole dose curve; as a rule, active = well fitted inhibition curve with a large enough effect; inconclusive = small, poorly fitted or top-dose-only effect; inactive = no such curve, though single readings can be large or run the other way.
Outcome codes: active, inactive

Compound	Assigned category
Cc1cn([C@@H]2C[C@@H](O)[C@H](CO)O2)c(=O)[nH]c1=O	inactive
COc1ccc(Cn2ccc3ccc(C(=O)NO)cc32)cc1	inactive
CCCC1OC2C[C@@H]3[C@H]4CCC5=CC(=O)C=C[C@]5(C)[C@H]4C(O)C[C@]3(C)[C@]2(C(=O)CO)O1 (stereo not given in full)	inactive
COc1ccc2nc3cc(Cl)ccc3c(Nc3cc(CN4CCCC4)c(O)c(CN4CCCC4)c3)c2n1	active
Cc1ccc2c(=O)c3cccc(CC(=O)O)c3oc2c1C	inactive
COc1nccc(-c2c(-c3ccc(F)cc3)ncn2C2CCC(O)CC2)n1 (stereo not given)	inactive
OC1CCC(Nc2ncc3nc(Nc4c(F)cc(F)cc4F)n([C@@H]4CCOC4)c3n2)CC1 (stereo not given in full)	inactive
N#CC(c1ccnc(NCCc2cccnc2)n1)c1nc2ccccc2s1 (stereo not given)	active
COc1cccc(OC)c1-c1cc(C(=O)NC2(C(=O)O)C3CC4CC(C3)CC2C4)nn1-c1ccnc2cc(Cl)ccc12 (stereo not given)	inactive
CNc1nc(Nc2ccc(C(=O)N3CCOCC3)cc2OC)ncc1Cl	inactive

---

# Test system: WaGa
# Measurement description: qHTS assay to identify novel small-molecules to repurpose for Merkel cell carcinoma treatment (AID 1296009); note: nearly all actives have a fitted effect of over 60% in size
# Conditions: MCC and control cell lines, CellTiter-Glo viability, 72 h; series mostly up to 46 µM
Inconclusive results are not listed. Activity calls are given as the source filed them. The call rests on the fitted dose curve; in most records, active means well fitted inhibition curve with a large enough effect; inconclusive means small, poorly fitted or top-dose-only effect; inactive means flat fitted curve, though single readings scatter.
Outcome codes: True for active, False for inactive

Compound	System name	Assigned category
CCCCOCCOc1nc(-c2ccc(C(=O)O)c(F)c2)sc1C	WaGa	False
CC(C)c1c(C(=O)Nc2ccccc2)c(-c2ccccc2)c(-c2ccc(F)cc2)n1CC[C@H](O)C[C@@H](O)CC(=O)O	WaGa	True
COc1cc2nccc(Oc3ccc(NC(=O)Nc4ccc(F)cc4F)c(F)c3)c2cc1OC	WaGa	False
CCNC(=O)[C@H]1O[C@@H](n2cnc3c(N)nc(NCCc4ccc(CCC(=O)O)cc4)nc32)[C@H](O)[C@H]1O	WaGa	False
CCNC(=O)CCCC=CC[C@@H]1[C@H](C=CC(O)CCc2ccccc2)[C@@H](O)C[C@@H]1O (stereo partly drawn)	WaGa	False
C=CC[N+]1([C@H]2C[C@H]3[C@@H]4CC[C@H]5C[C@H](O)[C@@H](N6CCOCC6)C[C@]5(C)[C@@H]4CC[C@]3(C)[C@H]2OC(C)=O)CCCC1	WaGa	False
CCC(C)SSc1ncc[nH]1 (stereo not drawn)	WaGa	True
Cc1cc2c(cc1C1(c3ccc(C(=O)O)cn3)CC1)C(C)(C)CCC2(C)C	WaGa	False
CCC(=C(c1ccc(O)cc1)c1ccc(OCCNC)cc1)c1ccccc1	WaGa	False
Cc1cc(C(C)Nc2ccccc2)c2nc(N3CCOCC3)cc(=O)n2c1 (stereo not drawn)	WaGa	False
COc1c(C)cnc(Cn2cnc3c(Cl)nc(N)nc32)c1C	WaGa	True
NC[C@H]1O[C@H](O[C@@H]2[C@@H](O)[C@@H](O[C@H]3O[C@H](CO)[C@@H](O)[C@H](N)[C@@H]3O)[C@H](N)C[C@@H]2N)[C@H](O)[C@@H](O)[C@H]1O	WaGa	False
COc1ccnc(CS(=O)c2nc3ccc(OC(F)F)cc3[nH]2)c1OC (stereo not drawn)	WaGa	False
CCCCCCCCCCCCCCCC(=O)O[C@H]1[C@@H](O)[C@@H](O)[C@@H]([C@H](NC(=O)[C@@H]2C[C@@H](CCC)CN2C)[C@H](C)Cl)O[C@@H]1SC	WaGa	False
CN1c2ccccc2C(=O)N2CCc3c([nH]c4ccccc34)C21 (stereo not drawn)	WaGa	False
CC(C)C[C@@H](C(=O)N[C@H](C(=O)OC1CCCC1)c1ccccc1)[C@H](O)C(=O)NO	WaGa	True
Fc1ccc(C(c2ccc(F)cc2)N2CCN(CC=Cc3ccccc3)CC2)cc1	WaGa	False
CN1CCN2c3ncccc3Cc3ccccc3C2C1 (stereo not drawn)	WaGa	False

---

# Measurement description: Quantitative High-Throughput drug screen in 47 multiple myeloma cell lines against the NCATS MIPE library collection: KMS20_JCRB cell viability assay (AID 1918973); note: nearly all actives have a fitted effect of over 45% in size
# Conditions: CellTiter-Glo ATP, 48 h; series mostly up to 45.8 µM
Inconclusive results are not listed. Activity calls are given as the source filed them. The call rests on the fitted dose curve; in most records, active means well fitted cell-killing curve with a large enough effect; inconclusive means small, poorly fitted or top-dose-only effect, or effect the other way; inactive means no such curve, though single readings can be large or run the other way.
Outcomes: class 1 for active, class 0 for inactive

Compound	Assigned category
Cc1cccc(-c2[nH]c(C(C)(C)C)nc2-c2ccc3c(c2)OCO3)n1	class 1
CC(C)CN(C[C@@H](O)[C@H](Cc1ccccc1)NC(=O)O[C@H]1CO[C@H]2OCC[C@H]21)S(=O)(=O)c1ccc(N)cc1	class 1
O=C(c1ccc(F)c(F)c1Nc1ccc(I)cc1F)N1CC(O)([C@H]2CCCCN2)C1	class 1
C[C@@H]1[C@H](C)CC[C@]2(C(=O)O)CC[C@]3(C)C(=CC[C@@H]4[C@@]5(C)CC[C@H](O)C(C)(C)[C@H]5CC[C@]43C)[C@@H]12	class 0
CN(C(Cc1ccc(OS(=O)(=O)c2cccc3cnccc23)cc1)C(=O)N1CCN(c2ccccc2)CC1)S(=O)(=O)c1cccc2cnccc12 (centres undefined)	class 1
Cc1cccc(Nc2nc(N[C@@H]3CCCC[C@H]3N)ncc2C(N)=O)c1	class 1
OC[C@H]1O[C@@H](Oc2ccc(O)cc2)[C@H](O)[C@@H](O)[C@H]1O	class 0
C[C@H]1COC2=C1C(=O)C(=O)c1c2ccc2c1CCCC2(C)C	class 1
O=C(O)C1=CO[C@@H](O[C@@H]2O[C@H](CO)[C@H](O)[C@H](O)[C@H]2O)[C@@H]2C(CO)=CC[C@H]12	class 0
COc1cccc(OC)c1-c1cc(C(=O)NC2(C(=O)O)C3CC4CC(C3)CC2C4)nn1-c1ccnc2cc(Cl)ccc12 (centres undefined)	class 0
N#CC(c1ccnc(NCCc2cccnc2)n1)c1nc2ccccc2s1 (centres undefined)	class 1
O=C1CN2Cc3c(ccc(Cl)c3Cl)N=C2N1	class 0
COc1ccc(C=CC(=O)Nc2ccccc2C(=O)O)cc1OC	class 1
COC(=O)Nc1ccc(-c2nc(N3CCOCC3)c3cnn(C4CCN(C(=O)OC)CC4)c3n2)cc1	class 1
CC(C)[C@H](O)C(=O)N[C@@H](C)C(=O)N[C@@H]1C(=O)N(C)CCc2ccccc21	class 0
CC[C@H](C=C[C@@H](C)[C@H]1CC[C@H]2[C@@H]3CC=C4C[C@@H](O)CC[C@]4(C)[C@@H]3CC[C@]12C)C(C)C	class 0
COc1ccnc(CS(=O)c2nc3ccc(OC(F)F)cc3[nH]2)c1OC (centres undefined)	class 0
O=C(NC[C@H](O)CO)c1ccncc1Nc1ccc(I)cc1F	class 1
COc1c(C)cnc(Cn2cnc3c(Cl)nc(N)nc32)c1C	class 1
C[C@@H]1O[C@@H](O[C@H]2CC[C@@]3(C)[C@H](CC[C@@H]4[C@H]3C[C@@H](O)[C@]3(C)[C@@H](C5=CC(=O)OC5)CC[C@]43O)C2)C[C@H](O)[C@@H]1O[C@H]1C[C@H](O)[C@H](O[C@H]2C[C@H](O)[C@@H](O)[C@@H](C)O2)[C@H](C)O1 (stereo in doubt)	class 1
N#CC(c1ccc(Cl)cc1)c1c(Cl)cc(-n2ncc(=O)[nH]c2=O)cc1Cl (centres undefined)	class 1
O=C(c1ccc(C(=O)N2CCC(N3CCCC3)CC2)c(Nc2ccccc2)c1)N1CCC(N2CCCC2)CC1	class 0
CN1CCN2c3ncccc3Cc3ccccc3C2C1 (centres undefined)	class 0
CCC(C)SSc1ncc[nH]1 (centres undefined)	class 1
CCOC(=O)[C@H](CCc1ccccc1)N[C@@H](C)C(=O)N1CCCC1C(=O)O (some centres undefined)	class 0
Cc1nn(Cc2ccccc2Cl)c(C)c1CN(C)CC(O)COc1ccc(Cl)cc1 (centres undefined)	class 1
CC=C1C2C=C(C)CC1(N)c1ccc(=O)[nH]c1C2 (centres undefined)	class 0
Cc1cccc2c1CC[C@H](CN1CCC(c3c(Cl)cccc3Cl)CC1)C[C@@H]2O	class 1
Clc1ccc(C2(c3ccc(-c4cn[nH]c4)cc3)CCNCC2)cc1	class 1
CC1=C(C(=O)Nc2cc3cn[nH]c3cc2F)C(c2ccc(C(F)(F)F)cc2)CC(=O)N1 (centres undefined)	class 0
C[C@H]1[C@H](O)O[C@@H]2O[C@@]3(C)CC[C@@H]4[C@H](C)CC[C@@H]1[C@@]24OO3	class 1
C=CCc1cccc(C=NNC(=O)CN2CCN(Cc3ccccc3)CC2)c1O	class 1
CC[C@@H]([C@H](C)O)n1ncn(-c2ccc(N3CCN(c4ccc(OCC5CO[C@@](Cn6cncn6)(c6ccc(F)cc6F)C5)cc4)CC3)cc2)c1=O (some centres undefined)	class 0
O=C(c1ccc(C=Cc2n[nH]c3ccccc23)cc1)N1CCNCC1	class 1
CN1C(=O)C(Cc2c[nH]c3ccccc23)NC1=S (centres undefined)	class 0
NS(=O)(=O)c1ccc(Nc2nc(OCC3CCCCC3)c3[nH]cnc3n2)cc1	class 1
CCOC(=O)[C@H]1O[C@H]1C(=O)N[C@@H](CC(C)C)C(=O)NCCC(C)C	class 0
O=C(Nc1ccc(OC(F)(F)F)cc1)c1sccc1NCc1ccnc2ccccc12	class 1
NC(=O)c1noc([C@H](CCCC2CCCCC2)CC(=O)NO)n1	class 1
